Form field: pKd (one value per entry).
Biological target: TrpR (Escherichia coli, UniProt P0A881, M42F/N87G/S88Y/T44L/T81M)
Construct: TrpR without fluorescent proteins, pET21b(+), expressed in E. coli BL21(DE3), NiIMAC and Superdex S75; homodimer; template Trp-CTY / Trp-CTYT sensors (Addgene 13533, 13534)
Assay: ITC, one-site model
Just so you know, pKd here is -log10 of the concentration in molar units; reply with that number alone.

| cpd.smiles | tested.target | pKd |
| --- | --- | --- |
| O=C(O)Cc1c[nH]c2ccccc12 | TrpR (Escherichia coli, UniProt P0A881, M42F/N87G/S88Y/T44L/T81M) | 5.82 |

We next turn to a different molecule, shown below.
INPUT: Lab note: record pKd of N#CCc1c[nH]c2ccccc12 tested on TrpR (Escherichia coli, UniProt P0A881, M42F/N87G/S88Y/T44L/T81M).
OUTPUT: 4.84

* * *

Form field: pKd (one value per entry).
Target: TrpR (Escherichia coli, UniProt P0A881, S88Y/T44L/T81M)
Construct: TrpR without fluorescent proteins, pET21b(+), expressed in E. coli BL21(DE3), NiIMAC and Superdex S75; homodimer; template Trp-CTY / Trp-CTYT sensors (Addgene 13533, 13534)
Test: ITC, one-site model
Just so you know, pKd here is -log10 of the concentration in molar units; reply with that number alone.

| cpd.smiles | reported.result |
| --- | --- |
| O=C(O)Cc1c[nH]c2ccccc12 | 5.52 |

We next turn to a different compound, shown below.
INPUT: Tell me measured pKd for N#CCc1c[nH]c2ccccc12 please.
OUTPUT: 4.47
